FYI, the data here is from PubChem BioAssay (NCI).

System: NCI-H23 lung
Experiment: NCI-60 one-dose screen, 48 h
Settings: 10 µM
The panel holds about 83,000 compounds, 20% with a hit somewhere; the sample as a whole holds those more often. Active and inactive are the calls of the source. Rule for the calls: active = growth percent below 10; inactive = the rest.
Classes used: active, inactive

INSERT INTO results (compound, label) VALUES
  ('O=c1oc2cc(OS(=O)(=O)C3CC3)ccc2c2c1CCCCCC2', 'inactive'),
  ('COc1ccc(/C=C2\SC(=S)N(CCCN3CCOCC3)C2=O)c(OC)c1', 'inactive'),
  ('COc1cc(NS(C)(=O)=O)ccc1Nc1c2ccc(Cl)cc2nc2c(OC)cccc12', 'active'),
  ('NC(=O)C12C(=O)NC(=O)C1(C(=O)O)C21CCCC1 (stereo not given)', 'inactive'),
  ('Cc1nn2c(/C=C3/C(=O)Nc4ccc(Cl)cc43)c(-c3ccccc3)nc2s1', 'inactive'),
  ('O=C(c1ccccc1)C(Nc1ccccc1)c1ccccc1 (stereo not given)', 'inactive'),
  ('Cc1ccc2c(c1)-c1cc(C)nn1-c1ccc(C#N)cc1O2', 'inactive'),
  ('O=c1cc(CSc2nnc(-c3ccccc3)n2-c2ccc(F)cc2)c2ccc3ccccc3c2o1', 'inactive'),
  ('COc1cc(Cl)cc(-c2nn(-c3cccc(NC(=O)Nc4cccc(C(F)(F)F)c4)c3)cc2-c2ccncc2)c1', 'active'),
  ('COc1cc(Cn2c(-c3ccccc3)cc3c2-c2oncc2CC3)cc(OC)c1', 'inactive');
